meta.source: patent US20140087995A1

- Measurement Target: T1, human amylin receptor (amylin 3(a) receptor: human calcitonin receptor co-expressed with RAMP-3) (human, UniProt P30988 25-474; O60896 24-148, limits assumed)
- T1 construct: whole, on cells; Used as cell membranes prepared from the Amylin 3(a)/CRE-luc BHK cells (Assay V); also called hAmylin-R; hAmylinR
- T1 sequence (looked up) 1: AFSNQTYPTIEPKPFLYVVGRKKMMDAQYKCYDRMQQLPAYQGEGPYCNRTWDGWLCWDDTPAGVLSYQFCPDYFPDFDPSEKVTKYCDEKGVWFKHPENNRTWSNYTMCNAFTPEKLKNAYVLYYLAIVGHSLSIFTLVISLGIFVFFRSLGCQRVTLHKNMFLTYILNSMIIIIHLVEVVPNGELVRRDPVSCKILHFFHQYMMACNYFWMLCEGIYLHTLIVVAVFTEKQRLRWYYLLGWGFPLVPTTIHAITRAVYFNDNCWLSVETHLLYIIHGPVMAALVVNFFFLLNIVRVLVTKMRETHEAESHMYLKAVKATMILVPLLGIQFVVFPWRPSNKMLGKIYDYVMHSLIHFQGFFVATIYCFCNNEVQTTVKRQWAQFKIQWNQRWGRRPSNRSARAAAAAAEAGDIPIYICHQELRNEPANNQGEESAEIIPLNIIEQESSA
- T1 sequence (looked up) 2: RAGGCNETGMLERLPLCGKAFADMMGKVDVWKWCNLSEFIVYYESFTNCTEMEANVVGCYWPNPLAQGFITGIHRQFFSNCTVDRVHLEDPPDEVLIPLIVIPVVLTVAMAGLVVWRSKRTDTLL
- Assay Info: SPA displacement of 125I-rat amylin, hAmylin 3(a) receptor membranes
Numbered stars: 1 amine (or outer) side, 2 acyl side, 3 side chain; on linkers, the order of the positions; unused ones are H or OH. Bridge positions count the residues as written; N and C are the ends. Side chains are listed from the residue outwards. Ends that are not written are not given here. * marks the point of attachment. C20 diacid = O=C(O)CCCCCCCCCCCCCCCCCCC(=O)*; γGlu = O=C(O)[C@H](CCC(=O)[*:2])N[*:1]
Reported Metric: IC50 (pM)
Give the quantity in pM, number only.

Binder	U	IC50
K([γGlu-γGlu-C20 diacid])CNTATCATQRLADFLRHSSPNFGAIPSSTNVGPRTY-NH2 (disulfide 2-7, also called compound 130)	pM	453
{C20 diacid-γGlu}-GRCNTATCATQRLAAFLRHSSPNFGAIPSSTNVGPNTY-NH2 (disulfide 3-8)	pM	114

# lookup: IC50 of K([γGlu-γGlu-C20 diacid])CNTATCATQRLAEFLRHSSPNFGAIPSSTNVGPHTY-NH2 (disulfide 2-7 (inferred))
377
